Below is a list of entries, each paired with its recorded koff value.
# TARGET OR SYSTEM: T1, human folate receptor alpha (hFRα), recombinant protein (human, UniProt P15328 25-233)
# T1 construct: Bought recombinant proteins (His-tagged, or biotinylated via Avi-tag, e.g. AcroBiosystems FO1-H82E2, F01-H52H1); also called hFOLR1; huFOLR1
# T1 sequence (P15328 25-233 limits assumed): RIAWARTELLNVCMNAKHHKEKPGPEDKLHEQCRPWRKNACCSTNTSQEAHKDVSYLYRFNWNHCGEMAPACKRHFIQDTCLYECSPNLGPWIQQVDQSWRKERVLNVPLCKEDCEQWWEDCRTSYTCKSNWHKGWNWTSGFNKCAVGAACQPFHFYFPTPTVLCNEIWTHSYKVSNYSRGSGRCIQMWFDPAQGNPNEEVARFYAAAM
# METHOD NOTES: BLI, purified VHH
VALUE TYPE: koff (s⁻¹)

[[record]]
binder = "P01500056: P01500001(I33L, D72P, N73G)-FLAG3-HIS6 (VHH, also called P0150056) VHH: EVQLVESGGGLVQPGGSLRLSCAASGSGFSGMLMGWYRQAPGKQRELVATVTSHGTTNYADSVKGRFTISRPGAKNTVYLQMNSLRPEDTAVYYCNAHFPGIYWGKGTLVTVSS"
value_reported = 0.000265

[[record]]
binder = "P01500044: P01500001(S30I, D72E, N73G)-FLAG3-HIS6 (VHH, also called P0150044) VHH: EVQLVESGGGLVQPGGSLRLSCAASGSGFIGMIMGWYRQAPGKQRELVATVTSHGTTNYADSVKGRFTISREGAKNTVYLQMNSLRPEDTAVYYCNAHFPGIYWGKGTLVTVSS"
value_reported = 0.000464

[[record]]
binder = "P01500049: P01500001(G26E)-FLAG3-HIS6 (VHH, also called P0150049) VHH: EVQLVESGGGLVQPGGSLRLSCAASESGFSGMIMGWYRQAPGKQRELVATVTSHGTTNYADSVKGRFTISRDNAKNTVYLQMNSLRPEDTAVYYCNAHFPGIYWGKGTLVTVSS"
value_reported = 0.00569

[[record]]
binder = "P01500048: P01500001(S30I, D72P)-FLAG3-HIS6 (VHH, also called P0150048) VHH: EVQLVESGGGLVQPGGSLRLSCAASGSGFIGMIMGWYRQAPGKQRELVATVTSHGTTNYADSVKGRFTISRPNAKNTVYLQMNSLRPEDTAVYYCNAHFPGIYWGKGTLVTVSS"
value_reported = 0.0013

